Values compiled from ChEMBL document CHEMBL3856234.

test: Permeability of the compound in PBS/EtOH (7:3) buffer measured after 10 hrs by PAMPA assay; type: ADME; details: read-out: Peff
Assign labels as follows, please: true (1) for Papp at 10 h below 3 ×10⁻⁶ cm/s; false (0) for Papp at 10 h equal to or exceeding 3 ×10⁻⁶ cm/s.

Answered cases to consult:
INSERT INTO measurements (chemical_structure, group_label) VALUES
  ('CNCCCN1c2ccccc2CCc2ccccc21', 'false (0)'),
  ('CCNC(=S)Nc1cc(-n2cnc(CN3CCCCCC3)c2)ncn1', 'false (0)'),
  ('CCNC(=S)Nc1cc(-n2cnc(CN3CCN(C)CC3)c2)ncn1', 'true (1)'),
  ('CCNC(=S)Nc1cc(-n2cnc(CN3CCOCC3)c2)ncn1', 'true (1)'),
  ('CCNC(=S)Nc1cc(-n2cnc(CN(C)Cc3ccccc3)c2)ncn1', 'false (0)'),
  ('CCCN(CCC)Cc1cn(-c2cc(NC(=S)NCC)ncn2)cn1', 'false (0)'),
  ('CCNC(=S)Nc1cc(-n2cnc(CN3CCCC3)c2)ncn1', 'true (1)'),
  ('CCNC(=S)Nc1cc(-n2cnc(CN(CC)CC)c2)ncn1', 'true (1)');

// next entry
## Task In the record for `CCNC(=S)Nc1cc(-n2cnc(CN3CCCCC3)c2)ncn1` , is Papp at 10 h less than 3 ×10⁻⁶ cm/s?
## Result false (0)

----------
experiment: Antioxidant activity assessed as trolox equivalent of AAPH radical scavenging activity preincubated for 10 mins followed by AAPH challenge measured every min for 180 mins by ORAC-FL assay; assay type: functional
quantity_name: Activity (umolequiv/umol)
Form field (numeric): enter value without unit.

INSERT INTO assay_data (chemical_structure, test_result) VALUES
  ('CCNC(=S)Nc1cc(-n2cnc(CN3CCCCC3)c2)ncn1', 1.27),
  ('c1cc(-n2cnc(CN3CCCC3)c2)ncn1', -0.01),
  ('CCNC(=S)Nc1cc(-n2cnc(CN3CCN(C)CC3)c2)ncn1', 1.23),
  ('CCNC(=S)Nc1cc(-n2cnc(CN3CCCC3)c2)ncn1', 1.2),
  ('CCNCc1cn(-c2cc(NC(=S)NCC)ncn2)cn1', 1.33),
  ('CCNC(=S)Nc1cc(-n2cnc(CN3CCOCC3)c2)ncn1', 1.48),
  ('CCNC(=S)Nc1cc(-n2cnc(CN(C)Cc3ccccc3)c2)ncn1', 1.25),
  ('CCNC(=S)Nc1cc(-n2cnc(C=O)c2)ncn1', 0.31);

## Task What measured Activity (umolequiv/umol) goes with `CCCN(CCC)Cc1cn(-c2cc(NC(=S)NCC)ncn2)cn1` ?
## Result 1.28

## Task And the next one, `CCNC(=S)Nc1cc(-n2cnc(CNCc3ccccc3)c2)ncn1` ?
## Result 1.3

## Task And the next one, `CCNC(=S)Nc1cc(-n2cnc(CN3CCCCCC3)c2)ncn1` ?
## Result 1.24

## Task And the next one, `CCNC(=S)Nc1cc(-n2cnc(CN(C)C)c2)ncn1` ?
## Result 1.17

## Task And the next one, `CCNC(=S)Nc1cc(-n2cnc(CNC)c2)ncn1` ?
## Result 1.32

## Task And the next one, `CCNC(=S)Nc1cc(-n2cnc(CN(CC)CC)c2)ncn1` ?
## Result 1.31

----------
// reported Ratio IC50 per item
species: Rattus norvegicus; test: Selectivity index, ratio of IC50 for rat serum BuChE to IC50 for rat cortex AChE

# annotated cases, reported Ratio IC50 shown
INSERT INTO measurements (chemical_structure, test_result) VALUES
  ('CCNC(=S)Nc1cc(-n2cnc(CN3CCOCC3)c2)ncn1', '> 132'),
  ('CCNC(=S)Nc1cc(-n2cnc(CNC)c2)ncn1', '> 159');

## Task What measured Ratio IC50 goes with `CCNC(=S)Nc1cc(-n2cnc(CN(CC)CC)c2)ncn1` ?
## Result > 348

## Task And the next one, `CCNC(=S)Nc1cc(-n2cnc(CNCc3ccccc3)c2)ncn1` ?
## Result > 146

----------
biological target: Acetylcholinesterase (Rattus norvegicus); test: Inhibition of rat cortex AChE at 40 uM using acetylthiocholine iodide as substrate measured after 20 mins by Ellman's method relative to control
// reported inhibition per item

INSERT INTO assay_data (chemical_structure, test_result) VALUES
  ('CC(C)(C)NC(=S)Nc1cc(-n2cccn2)ncn1', '11.3%'),
  ('CCNC(=S)Nc1cc(-n2cccn2)ncn1', '77.3%'),
  ('Nc1cc(-n2cccn2)ncn1', '18.9%'),
  ('CCNc1cc(-n2cccn2)ncn1', '32.1%'),
  ('CCNC(=S)Nc1ncnc(-n2ccnc2)c1C', '45.9%'),
  ('CNC(=S)Nc1cc(-n2cccn2)ncn1', '46%');

Please look at the following compound next.
## Task What measured inhibition goes with `CCNC(=S)Nc1cc(-n2cccc2)ncn1` ?
## Result 13.8%

----------
test: Cytotoxicity against human SH-SY5Y cells assessed as reduction in cell viability at 100 uM measured after 24 hrs by MTT assay; format: toxicity, cell-based
quantity_name: Activity

INSERT INTO measurements (molecule, quantity_name, test_result) VALUES
  ('COc1cc2c(cc1OC)C(=O)C(CC1CCN(Cc3ccccc3)CC1)C2 (centres undefined)', 'Activity', 'Toxic'),
  ('CCNC(=S)Nc1cc(-n2cnc(CN3CCCC3)c2)ncn1', 'Activity', 'Toxic'),
  ('CCCN(CCC)Cc1cn(-c2cc(NC(=S)NCC)ncn2)cn1', 'Activity', 'Toxic');

----------
target: Acetylcholinesterase (Rattus norvegicus) (UniProt P37136); assay: Inhibition of rat cortex AChE at 40 uM using acetylthiocholine iodide as substrate measured after 20 mins by Ellman's method relative to control
Sequence (P37136 whole entry): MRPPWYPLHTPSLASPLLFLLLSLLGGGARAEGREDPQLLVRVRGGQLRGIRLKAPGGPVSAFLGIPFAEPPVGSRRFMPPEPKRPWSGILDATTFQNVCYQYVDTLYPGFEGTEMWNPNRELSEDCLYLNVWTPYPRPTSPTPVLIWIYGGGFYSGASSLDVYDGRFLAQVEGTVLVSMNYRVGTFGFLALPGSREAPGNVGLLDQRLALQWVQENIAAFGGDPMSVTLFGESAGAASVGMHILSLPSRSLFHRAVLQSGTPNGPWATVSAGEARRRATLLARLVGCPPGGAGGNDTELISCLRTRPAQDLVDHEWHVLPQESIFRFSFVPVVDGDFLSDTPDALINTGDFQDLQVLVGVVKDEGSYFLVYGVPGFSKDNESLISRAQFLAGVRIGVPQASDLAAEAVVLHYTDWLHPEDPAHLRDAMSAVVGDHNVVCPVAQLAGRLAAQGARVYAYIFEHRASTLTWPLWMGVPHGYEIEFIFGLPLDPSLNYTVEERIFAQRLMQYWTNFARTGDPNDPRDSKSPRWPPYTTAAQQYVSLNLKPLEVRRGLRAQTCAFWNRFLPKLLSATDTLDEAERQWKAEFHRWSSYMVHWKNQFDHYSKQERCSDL
quantity_name: inhibition (%)
All answers are understood in %, so give the number only.

INSERT INTO results (chemical_structure, test_result) VALUES
  ('CCNC(=S)Nc1nccc(-n2ccnc2)n1', 64.9);

## Task What measured inhibition goes with `S=C(Nc1cc(-n2cccn2)ncn1)NC1CCCCC1` ?
## Result 11.2

## Task And the next one, `CC(=O)Nc1cc(-n2cccn2)ncn1` ?
## Result 5.09

## Task And the next one, `CCOc1cc(-n2cccn2)ncn1` ?
## Result 11.8

## Task And the next one, `CCNC(=S)Nc1cc(-n2ccnc2)nc(C)n1` ?
## Result 71.4

## Task And the next one, `CCNC(=S)Nc1cc(N2CCOCC2)ncn1` ?
## Result 54.1

## Task And the next one, `S=C(NCc1cccc(Cl)c1)Nc1cc(-n2cccn2)ncn1` ?
## Result 0

## Task And the next one, `CCNC(=S)Nc1cc(-n2ccnc2)ncn1` ?
## Result 72.8

## Task And the next one, `S=C(NCc1ccccc1)Nc1cc(-n2cccn2)ncn1` ?
## Result 17.3

## Task And the next one, `CCNC(=S)Nc1cc(N2CCN(C)CC2)ncn1` ?
## Result 70.1

## Task And the next one, `CCNC(=S)Nc1cc(NCc2ccccc2)ncn1` ?
## Result 10.9

## Task And the next one, `CCNC(=S)Nc1ccnc(-n2ccnc2)n1` ?
## Result 46.6

## Task And the next one, `CCCCNC(=S)Nc1cc(-n2cccn2)ncn1` ?
## Result 66.6

----------
// reported inhibition per item
biological target: Acetylcholinesterase (Rattus norvegicus) (UniProt P37136); test: Inhibition of rat cortex AChE at 40 uM using acetylthiocholine iodide as substrate measured after 20 mins by Ellman's method relative to control
All answers are understood in %, so give the number only.

INSERT INTO results (chemical_structure, test_result) VALUES
  ('CCCNC(=S)Nc1cc(-n2cccn2)ncn1', 64),
  ('CCNC(=S)Nc1cc(-n2ccnn2)ncn1', 61.5),
  ('CC(C)NC(=S)Nc1cc(-n2cccn2)ncn1', 36.2),
  ('CCNC(=S)Nc1nc2c(c(-n3ccnc3)n1)CCC2', 24.4),
  ('CCNC(=S)Nc1cc(N2CCCC2)ncn1', 39.2),
  ('CCNC(=S)Nc1cc(-n2cnc3ccccc32)ncn1', 66.2),
  ('CCNC(=S)Nc1cc(-n2cncn2)ncn1', 66.6),
  ('c1ccc(CNc2cc(-n3cccn3)ncn2)cc1', 10.8),
  ('CCCc1cc(-n2cccn2)ncn1', 9.88);

Please look at the following compound next.
## Task I'm curious: which inhibition was measured for `CCNC(=O)Nc1cc(-n2cccn2)ncn1` tested on Acetylcholinesterase (Rattus norvegicus) (UniProt P37136)?
## Result 22.1

----------
// reported log10 of IC50 per item
biological target: Acetylcholinesterase (Rattus norvegicus, UniProt P37136)
Sequence (P37136 whole entry): as above
Recorded IC50 (log10, nM)

# annotated cases, reported log10 of IC50 shown
INSERT INTO results (chemical_structure, target_or_system, test_result) VALUES
  ('CCNC(=S)Nc1cc(-n2cncn2)ncn1', 'Acetylcholinesterase (Rattus norvegicus, UniProt P37136)', 3.02),
  ('CCNC(=S)Nc1cc(-n2ccnc2C)ncn1', 'Acetylcholinesterase (Rattus norvegicus, UniProt P37136)', 3.79),
  ('CCNC(=S)Nc1cc(-n2cnc(CN3CCN(C)CC3)c2)ncn1', 'Acetylcholinesterase (Rattus norvegicus, UniProt P37136)', 2.01),
  ('CCNC(=S)Nc1cc(-n2cccn2)ncn1', 'Acetylcholinesterase (Rattus norvegicus, UniProt P37136)', 3.91),
  ('CCNC(=S)Nc1cc(-n2ccnc2CC)ncn1', 'Acetylcholinesterase (Rattus norvegicus, UniProt P37136)', 3.83),
  ('C/C=C1\[C@H]2C=C(C)C[C@]1(N)c1ccc(=O)[nH]c1C2', 'Acetylcholinesterase (Rattus norvegicus, UniProt P37136)', 1.91),
  ('CCNC(=S)Nc1cc(N2CCN(C)CC2)ncn1', 'Acetylcholinesterase (Rattus norvegicus, UniProt P37136)', 3.51),
  ('CCNC(=S)Nc1cc(-n2cnc(CN(C)C)c2)ncn1', 'Acetylcholinesterase (Rattus norvegicus, UniProt P37136)', 2.18);

## Task What measured log10 of IC50 goes with `CCNC(=S)Nc1cc(-n2cnc(CN3CCCCC3)c2)ncn1` ?
## Result 2.05

## Task And the next one, `CCCN(CCC)Cc1cn(-c2cc(NC(=S)NCC)ncn2)cn1` ?
## Result 2.31

## Task And the next one, `CCNC(=S)Nc1cc(-n2cnc(CN3CCCC3)c2)ncn1` ?
## Result 1.83

## Task And the next one, `CCNC(=S)Nc1cc(-n2cnc(CO)c2)ncn1` ?
## Result 3.00

## Task And the next one, `CCNC(=S)Nc1cc(-n2cnc(Br)c2)ncn1` ?
## Result 2.99

## Task And the next one, `CCNC(=S)Nc1cc(-n2cnc3ccccc32)ncn1` ?
## Result 3.89
